As a worked illustration, we turn to AC50 data collected for Cytochrome P450 1A2 (Homo sapiens, UniProt P05177).
readout.kind: AC50

sample.smiles: Nc1nc(SCc2ccccc2)c2ncn(Cc3ccccc3)c2n1
recorded.value: 0.251 µM (inconclusive)
//
sample.smiles: COc1cc(-c2nnc(COC(=O)c3c4c(nc5ccccc35)CCCC4)o2)cc(OC)c1OC
recorded.value: 14.1 µM (inconclusive)
//
sample.smiles: COc1ccc(-n2c(=O)c(-c3ccc(Cl)cc3)nc3cncnc32)cc1
recorded.value: 5.01 µM (inconclusive)
//
sample.smiles: N#Cc1c2c(c(-n3cnc4ccccc43)n3c1nc1ccccc13)CCC2
recorded.value: 25.1 µM (inconclusive)
